Provenance of the data: patent US20230303681A1

- TARGET_OR_TEST_SYSTEM: T1, human TMEM106B (human, UniProt Q9NUM4 2-274)
- T1 construct: Full-length, on transiently transfected HEK293 cells, or natively expressed on HeLa, U251 and A549 cells; also called huTMEM106B; huTMEM
- EXPERIMENT_DESCRIPTION: FACS HEK+huTMEM, 10 ug/ml;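 note: purified mouse IgG antibodies at 10 µg/ml bound to HEK293 cells transiently expressing human TMEM106B, measured by flow cytometry as median fluorescence intensity of propidium iodide negative live cells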
EXPERIMENTAL_ENDPOINT: MFI

>>> assay_value("anti-TMEM106B antibody TM-27 (antibody, V domains shown) VH: QVQLQQSGAELVRPGTSVKVSCKASGYALTNYLIEWVKQRPGQGLEWIGVINPGSGSTKYNEKFKGKATLTADKSSSTAYMQLSSLTSEDSAVYFCARIIYDHDWYFDVWGTGTTVTVSS VL: QIVLTQSPAIMSASPGEKVTISCSASSSISYMYWYQQKPGSSPKPWIYRTSTLASGVPARFSGSGSGTSYSLTISSMEAEDAATYYCQQYHSYPRTFGGGTKLEIK")
4140

Attention now shifts to the item below.
Prompt: State its MFI: anti-TMEM106B antibody TM-42 (antibody, V domains shown) VH: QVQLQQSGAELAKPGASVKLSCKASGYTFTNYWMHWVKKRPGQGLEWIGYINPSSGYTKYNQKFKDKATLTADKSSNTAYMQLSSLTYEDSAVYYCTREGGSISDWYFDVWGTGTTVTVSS VL: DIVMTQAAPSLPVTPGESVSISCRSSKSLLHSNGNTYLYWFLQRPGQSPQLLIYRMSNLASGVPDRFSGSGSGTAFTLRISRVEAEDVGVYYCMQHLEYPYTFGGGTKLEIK
Completion: 60100
